# assayedTarget: Histone-lysine N-methyltransferase EHMT2 (Homo sapiens)
# Sequence (Q96KQ7 whole entry): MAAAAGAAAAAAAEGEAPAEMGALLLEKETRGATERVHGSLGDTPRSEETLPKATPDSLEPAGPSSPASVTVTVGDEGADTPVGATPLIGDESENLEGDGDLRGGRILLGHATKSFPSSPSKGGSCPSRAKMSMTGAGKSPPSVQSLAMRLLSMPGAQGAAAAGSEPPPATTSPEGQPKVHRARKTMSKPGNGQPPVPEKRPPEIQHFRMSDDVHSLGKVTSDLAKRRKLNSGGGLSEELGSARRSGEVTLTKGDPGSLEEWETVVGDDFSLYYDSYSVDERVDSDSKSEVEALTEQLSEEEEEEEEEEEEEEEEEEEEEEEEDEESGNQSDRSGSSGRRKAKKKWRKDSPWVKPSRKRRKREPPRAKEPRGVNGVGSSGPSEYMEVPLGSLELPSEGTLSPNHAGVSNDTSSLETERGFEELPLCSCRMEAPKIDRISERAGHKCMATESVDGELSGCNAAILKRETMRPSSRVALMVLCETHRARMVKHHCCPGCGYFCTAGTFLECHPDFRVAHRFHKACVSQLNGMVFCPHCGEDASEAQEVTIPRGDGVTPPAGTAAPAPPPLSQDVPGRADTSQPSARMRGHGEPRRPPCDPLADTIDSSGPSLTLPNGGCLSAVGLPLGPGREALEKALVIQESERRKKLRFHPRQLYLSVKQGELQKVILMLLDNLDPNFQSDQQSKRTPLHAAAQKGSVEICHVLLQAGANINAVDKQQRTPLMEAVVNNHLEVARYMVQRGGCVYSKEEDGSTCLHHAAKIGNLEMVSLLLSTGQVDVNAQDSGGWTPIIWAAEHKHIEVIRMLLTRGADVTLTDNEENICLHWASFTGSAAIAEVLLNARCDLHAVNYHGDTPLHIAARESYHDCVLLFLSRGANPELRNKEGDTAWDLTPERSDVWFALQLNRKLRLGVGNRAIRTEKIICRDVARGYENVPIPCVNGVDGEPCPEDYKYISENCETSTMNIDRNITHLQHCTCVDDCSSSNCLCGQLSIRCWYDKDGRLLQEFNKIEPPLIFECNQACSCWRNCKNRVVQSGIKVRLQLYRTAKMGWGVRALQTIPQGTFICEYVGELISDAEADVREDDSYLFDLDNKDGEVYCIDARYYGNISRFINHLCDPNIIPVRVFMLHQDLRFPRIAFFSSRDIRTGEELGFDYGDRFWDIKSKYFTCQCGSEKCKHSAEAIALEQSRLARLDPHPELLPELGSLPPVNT
# protocol: Inhibition of human G9a expressed in HEK293 cells
measuredEndpoint: IC50

CN(C)CCCNc1nc(NC2CCN(Cc3ccccc3)CC2)c2ccccc2n1 : 41.3 µM
COc1cc2nc(NCCCN(C)C)nc(NC3CCN(Cc4ccccc4)CC3)c2cc1OC : 0.778 µM
